Values from the supplement of paper PMC6555819

Kindly supply the reported PBM binding z-score values for the records listed here.
- Test system: PPARg homodimer (NR concentration 180 nM)
- testMethodNotes: PBM binding z-score (relative to random genomic background probes); higher = stronger binding; sequences stand for … in GC…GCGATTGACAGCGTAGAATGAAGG
Give bare numbers.

Below, each entry is followed by its recorded PBM binding z-score result.
| biosequence | targetDesc | recordedValue |
| --- | --- | --- |
| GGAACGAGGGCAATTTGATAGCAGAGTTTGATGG | PPARg homodimer (NR concentration 180 nM) | 0.234 |
| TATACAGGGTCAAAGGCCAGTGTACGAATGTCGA | PPARg homodimer (NR concentration 180 nM) | 2.38 |
| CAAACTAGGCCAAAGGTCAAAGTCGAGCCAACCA | PPARg homodimer (NR concentration 180 nM) | 2.88 |

Look at each sequence and report its PBM binding z-score.
1. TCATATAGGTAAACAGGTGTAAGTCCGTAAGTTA
2. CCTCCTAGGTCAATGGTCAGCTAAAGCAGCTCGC
3. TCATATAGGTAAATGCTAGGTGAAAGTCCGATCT

Marked response:
1.12
2.06
0.763
